The binders listed here are annotated with their koff.
- Assayed Target: T1, human tenascin-R rCd4-His-FBG (rat; human, UniProt P05540 207-392, limits assumed)
- T1 construct: domain: domains 3 and 4; C-terminal FBG fusion; also called Hu TNR; human TNR rCd4-His-FBG; not shown: 6His tag
- T1 sequence (chain (part 1 of 2)): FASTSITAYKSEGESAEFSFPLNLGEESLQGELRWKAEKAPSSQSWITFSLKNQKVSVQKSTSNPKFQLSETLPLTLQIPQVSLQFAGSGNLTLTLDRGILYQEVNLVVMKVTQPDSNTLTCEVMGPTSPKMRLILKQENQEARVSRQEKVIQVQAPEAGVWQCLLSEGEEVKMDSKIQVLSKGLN
- T1 sequence (chain (part 2 of 2)): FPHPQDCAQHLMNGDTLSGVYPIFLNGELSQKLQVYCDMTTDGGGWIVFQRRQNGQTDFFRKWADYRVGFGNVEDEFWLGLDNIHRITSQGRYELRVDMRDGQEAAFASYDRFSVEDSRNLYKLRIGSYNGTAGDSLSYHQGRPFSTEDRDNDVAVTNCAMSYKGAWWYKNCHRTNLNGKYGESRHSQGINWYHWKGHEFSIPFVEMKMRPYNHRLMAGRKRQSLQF
- Test Protocol: SPR off-rate screen, captured IgG4 supernatant, 25 C
- Method: The 31 scFv of interest were sub-cloned into a human IgG4 expression vector for generation of antibodies as human IgG4 with a hinge-stabilising mutation (S241P; Angal et al, 1993). […] Off rates were determined by reference cell subtraction and fitting the sensogram experimental data assuming a 1:1 interaction using BIAevaluation software (GE, BR-1005-97).
The reply should contain only the number, in s⁻¹.

162_02_D3 human IgG4 (antibody, V domains shown, human IgG4 with hinge S241P; also called Antibody 162 02 D3 (derived from 2A5)) VH: EVRLVQSGAEVKKPGASVKVSCKVSGYTLTELSMHWVRQAPGKGLEWMGGFDPEDGETIYAQKFQGRVTMTEDTSTDTAYMELSSLRSEDTAVYYCATAQIHPLGLTYWGQGTLVTVSS VL: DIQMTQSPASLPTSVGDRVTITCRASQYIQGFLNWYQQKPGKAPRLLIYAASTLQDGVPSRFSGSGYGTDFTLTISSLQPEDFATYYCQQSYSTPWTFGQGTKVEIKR    0.0064
162_02_F3 human IgG4 (antibody, V domains shown, human IgG4 with hinge S241P; also called Antibody 162 02 F3 (derived from 2A5)) VH: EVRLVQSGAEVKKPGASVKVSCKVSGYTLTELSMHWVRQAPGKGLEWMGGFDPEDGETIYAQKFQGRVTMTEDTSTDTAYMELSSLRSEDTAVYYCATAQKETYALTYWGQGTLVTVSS VL: DIQMTQSPASLPTSVGDRVTITCRASQYIQGFLNWYQQKPGKAPRLLIYAASTLQDGVPSRFSGSGYGTDFTLTISSLQPEDFATYYCQNQYRGPWTFGQGTKVEIKR    0.088
165_13_B6 human IgG4 (antibody, V domains shown, human IgG4 with hinge S241P) VH: QVQLVESGGGLVQPGRSLRLSCAASGFTFDDYAMHWVRQAPGKGLEWVSGISGSGGSTYYADSVKGRFTISRDNAKNSLYLQMNSLRAEDTALYYCAKGQKGEGDTFDIWGQGTMVTVSS VL: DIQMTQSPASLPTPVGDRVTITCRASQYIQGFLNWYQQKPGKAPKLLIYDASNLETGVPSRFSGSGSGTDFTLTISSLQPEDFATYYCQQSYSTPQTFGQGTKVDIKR    0.0037

# next binder below
Ask: GET /values?readout=koff&item= 161_01_H10 human IgG4 (antibody, V domains shown, human IgG4 with hinge S241P; also called Antibody 161 01 H10 (derived from 2A5)) VH: EVRLVQSGAEVKKPGASVKVSCKVSGYTLTELSMHWVRQAPGKGLEWMGGFDPEDGETIYAQKFQGRVTMTEDTSTDTAYMELSSLRSEDTAVYYCATAQPVWAPGTYWGQGTLVTVSS VL: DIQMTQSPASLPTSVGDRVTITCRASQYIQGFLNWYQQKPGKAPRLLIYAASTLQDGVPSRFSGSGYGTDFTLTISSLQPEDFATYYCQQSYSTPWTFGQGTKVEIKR
Result: 0.0091
